# Study Target: Human plasma kallikrein (Homo sapiens (Human))
# Sequence (P03952 391-638): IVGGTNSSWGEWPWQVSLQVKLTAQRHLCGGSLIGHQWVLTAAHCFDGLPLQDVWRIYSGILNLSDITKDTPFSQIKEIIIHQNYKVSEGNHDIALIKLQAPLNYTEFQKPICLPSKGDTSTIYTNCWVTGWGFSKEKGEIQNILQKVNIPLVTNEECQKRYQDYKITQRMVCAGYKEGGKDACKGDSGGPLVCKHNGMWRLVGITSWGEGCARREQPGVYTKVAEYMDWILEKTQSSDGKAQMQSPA
# Sequence (P03952 20-390 partner): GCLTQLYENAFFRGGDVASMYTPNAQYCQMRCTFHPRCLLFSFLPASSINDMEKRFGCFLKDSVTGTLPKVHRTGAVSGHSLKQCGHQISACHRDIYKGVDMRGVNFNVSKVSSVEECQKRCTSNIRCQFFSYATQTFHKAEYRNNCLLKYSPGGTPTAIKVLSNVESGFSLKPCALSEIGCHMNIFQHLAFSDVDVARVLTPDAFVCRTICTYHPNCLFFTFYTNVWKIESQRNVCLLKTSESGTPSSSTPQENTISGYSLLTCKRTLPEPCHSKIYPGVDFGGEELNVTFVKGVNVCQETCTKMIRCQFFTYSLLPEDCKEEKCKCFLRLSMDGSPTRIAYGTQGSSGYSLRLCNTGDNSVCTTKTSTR
# Assay Method Text: Kallikrein Assay
# Run Conditions: purified Human plasma kallikrein 0.5 nM, Acetyl-K-P-R-AFC, pH 7.4; Ki from IC50 by Cheng Prusoff
Property: log10(Ki) (log10 of the value in nM)
Log scale reminder: Ki in nM, then log10 taken.

The reported value for COC(=O)Nc1ccc(C(=O)N[C@@H](CC(=O)N2CC[C@@H](OC)C2)C(=O)N2CCC[C@@]3(C2)OC(=O)Nc2ccc(Cl)cc23)cc1 [Example 101] in terms of log10(Ki) is 1.01

The reported value for COC(=O)Nc1ccc(C(=O)N[C@@H](Cc2ccc(-c3conc3C)cc2)C(=O)N2CC[C@@]3(C2)OC(=O)Nc2ccc(Cl)cc23)cc1 [Example 82] in terms of log10(Ki) is 1.07

The reported value for COC(=O)Nc1ccc(C(=O)N[C@@H](CC(=O)N2CCCCC2)C(=O)N2CC[C@@]3(C2)OC(=O)Nc2ccc(Cl)cc23)cc1 [Example 87] in terms of log10(Ki) is 1.04

The reported value for COC(=O)n1nc(N)c2ccc(C(=O)N[C@@H](Cc3ccccc3)C(=O)N3CC[C@@]4(C3)OC(=O)Nc3ccc(Cl)cc34)cc21 [Example 226] in terms of log10(Ki) is 1.37

The reported value for COC(=O)Nc1ccc(C(=O)N[C@@H](Cc2ccc(F)c(F)c2)C(=O)N2CCC3(C2)OC(=O)Nc2ccc(Cl)cc23)cc1 (stereo partly shown) [Example 27] in terms of log10(Ki) is 1.51

The reported value for O=C1Nc2ccc(Cl)c(F)c2[C@@]2(CCCN(C(=O)[C@H](CC3CC3)NC(=O)c3ccc4[nH]c(=O)[nH]c4c3)C2)O1 [Example 213] in terms of log10(Ki) is -0.27
